Test system: Bacillus subtilis DB104 (SP-AmyQ fusion secretion)
method: AmyQ secretion efficiency, weighted average sort bin (1 = best secretion, 10 = worst) (bin number (weighted average, 1-10)); higher = lower secretion efficiency
Answer Not satisfied if AmyQ secretion efficiency is under 6, and Satisfied if it is 6 or more.

- sequence-entry: "MLFKKWMVGLLAGCLAAGGFSYNAFATEN"
  cat: "Not satisfied"
- sequence-entry: "MFNRLFRVCFLAALIMAFTLPNSVYQQKP"
  cat: "Not satisfied"
- sequence-entry: "MRKKCKVCLWILVLLLSCLSGKSAYAATS"
  cat: "Not satisfied"
- sequence-entry: "MKKAAAVLLSLGLVFGFSYGAGHVAEGKTK"
  cat: "Not satisfied"
- sequence-entry: "MKSKVKIAGVLTVAAAAMTAKMYATAKGN"
  cat: "Satisfied"
- sequence-entry: "MNKLKRLSMLKKKKASVFIFSSHALAAQY"
  cat: "Satisfied"

Now turn to the next sequence.
Query block: Is AmyQ secretion efficiency at least 6? Consider `MHQIRAAGAVCLAVVLIAGCRFNEDQHQAEGENT`
Result block: Satisfied
